Catalogue of OX2R agonist activity (3 μM, %) values
target.desc: human orexin type 2 receptor (Homo sapiens, UniProt O43614)
Construct: expressed in transfected cells
Sequence (O43614 whole entry): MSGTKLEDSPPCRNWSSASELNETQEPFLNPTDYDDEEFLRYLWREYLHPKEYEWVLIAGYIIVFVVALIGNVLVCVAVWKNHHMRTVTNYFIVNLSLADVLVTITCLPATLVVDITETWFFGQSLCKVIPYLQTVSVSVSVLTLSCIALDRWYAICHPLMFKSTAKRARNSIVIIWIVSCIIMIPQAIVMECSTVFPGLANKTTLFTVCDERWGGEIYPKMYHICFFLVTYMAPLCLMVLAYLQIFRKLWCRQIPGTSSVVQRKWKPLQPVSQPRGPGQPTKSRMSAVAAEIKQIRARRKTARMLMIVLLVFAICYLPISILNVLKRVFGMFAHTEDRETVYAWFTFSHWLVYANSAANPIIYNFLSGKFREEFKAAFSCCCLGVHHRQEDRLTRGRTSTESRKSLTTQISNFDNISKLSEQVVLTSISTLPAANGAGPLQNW
assay.explanation: Measurement of orexin type 2 receptor agonist activity (calcium fluorescence, Fluo-4 AM, FDSS)
Format: cell-based
conditions: test compound 3 μM; CHO cells expressing human OX2 receptor; DMSO = 0%, orexin A (human) = 100%
// return numeric value only (unit: %, not printed)

// solved cases for OX2R agonist activity (3 μM, %) follow
> print(dat)
                                   compound  val
1  CS(=O)(=O)NC[C@H]1CCN1C(=O)[C@@H]1C[C@H]1c1ccccc1-c1c(F)cccc1F [Example 370]   84
2  CN(C)S(=O)(=O)N[C@H]1CCCN(C(=O)[C@@H]2C[C@H]2c2c(F)cccc2-c2c(F)cccc2F)C1 [Example 312]  100
3  CCCS(=O)(=O)NC[C@@H]1[C@H](F)CN1C(=O)[C@@H]1C[C@@]1(F)c1ccc(F)cc1-c1c(F)cccc1F [Example 433]   95
4  CO[C@H]1C[C@H](NS(C)(=O)=O)CN(C(=O)[C@@H]2C[C@H]2c2ccccc2-c2c(F)cccc2F)C1 [Example 349]   97
5  C[C@@H]1CN(C(=O)[C@@H]2C[C@H]2c2ccccc2-c2c(F)cccc2F)C[C@H]1NS(C)(=O)=O [Example 264]   97
6  CN(C)S(=O)(=O)NCC1CCN1C(=O)C1CC1c1ccccc1-c1c(F)cccc1F (stereo not shown) [Example 250]  104

Now for another entry.
OX2R agonist activity (3 μM, %) reported for this compound CS(=O)(=O)N[C@H]1CCN(C(=O)C2CC2(F)c2ccccc2-c2c(F)cccc2F)C1 (mixture of isomers) [Example 198] : 101
